system under test: 5-hydroxytryptamine receptor 7 (Homo sapiens)
Sequence (P34969 whole entry): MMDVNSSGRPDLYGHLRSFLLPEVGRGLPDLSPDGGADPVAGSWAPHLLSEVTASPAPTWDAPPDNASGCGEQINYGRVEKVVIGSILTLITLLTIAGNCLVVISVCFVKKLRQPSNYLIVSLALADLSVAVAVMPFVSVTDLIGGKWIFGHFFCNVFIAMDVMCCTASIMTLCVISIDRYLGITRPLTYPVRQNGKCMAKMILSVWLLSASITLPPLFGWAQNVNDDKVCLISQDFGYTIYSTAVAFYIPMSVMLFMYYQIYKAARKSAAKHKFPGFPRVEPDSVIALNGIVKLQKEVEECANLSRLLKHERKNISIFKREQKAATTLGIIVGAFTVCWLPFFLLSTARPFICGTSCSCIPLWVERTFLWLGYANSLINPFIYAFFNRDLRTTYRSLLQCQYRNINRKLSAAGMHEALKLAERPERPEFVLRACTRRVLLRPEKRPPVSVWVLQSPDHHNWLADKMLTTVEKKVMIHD
assay notes: biochemical
Description: Displacement of [3H]-5-CT from human 5-HT7R expressed in HEK293 cell membranes after 1 hr at 37 degC by microbeta counting method
observed property: Ki (nM)
Numbers only, in nM.

Below, 5 compounds whose answers are already recorded.
{"smiles entry": "O=S(=O)(c1cccc2ncccc12)N1CCC[C@@H]1CCN1CCN(c2cccc3[nH]ccc23)CC1", "Ki [nM]": 14}
{"smiles entry": "O=c1[nH]c2c(N3CCN(CC[C@@H]4CCCN4S(=O)(=O)c4cccc5ncccc45)CC3)cccc2o1", "Ki [nM]": 1120}
{"smiles entry": "O=S(=O)(c1cncc2ccccc12)N1CCC[C@@H]1CCN1CCN(c2cccc3sccc23)CC1", "Ki [nM]": 4}
{"smiles entry": "O=S(=O)(c1cncc2ccccc12)N1CCC[C@@H]1CCN1CCN(c2cccc3c2OCCO3)CC1", "Ki [nM]": 52}
{"smiles entry": "O=S(=O)(c1cccc2ncccc12)N1CCCCC[C@H]1CCN1CCN(c2nsc3ccccc23)CC1", "Ki [nM]": 17}

Please give Ki, item by item, for the list that follows.
1. O=S(=O)(c1cncc2ccccc12)N1CCC[C@H]1CCN1CCN(c2cccc3c2OCCO3)CC1
2. O=S(=O)(c1cncc2ccccc12)N1CC[C@@H]1CCN1CCN(c2nsc3ccccc23)CC1

142
51

I'm hoping you can list Ki for every compound here, please.
1. O=S(=O)(c1cncc2ccccc12)N1CCC[C@@H]1CCN1CCN(c2nsc3ccccc23)CC1
2. O=S(=O)(c1cccc2cnccc12)N1CCC[C@@H]1CCN1CCN(c2nsc3ccccc23)CC1
3. O=S(=O)(c1cncc2ccccc12)N1CCC[C@@H]1CCN1CC=C(c2c[nH]c3ccc(Cl)cc23)CC1

[3, 1, 8]

Please go through the list and note Ki for each compound.
1. O=S(=O)(c1cccc2ncccc12)N1CCC[C@H]1CCN1CCN(c2noc3ccccc23)CC1
2. O=c1[nH]c2c(N3CCN(CC[C@H]4CCCN4S(=O)(=O)c4cncc5ccccc45)CC3)cccc2o1
3. O=S(=O)(c1cccc2ncccc12)N1CCC[C@@H]1CCN1CCN(c2cccc3sccc23)CC1
4. O=S(=O)(c1cncc2ccccc12)N1CCC[C@H]1CCN1CCN(c2cccc3[nH]ccc23)CC1
5. O=S(=O)(c1cncc2ccccc12)N1CCCC[C@@H]1CCN1CCN(c2cccc3sccc23)CC1
6. O=S(=O)(c1cccc2ncccc12)N1CCC[C@@H]1CCN1CC=C(c2c[nH]c3ccc(Cl)cc23)CC1
7. O=c1[nH]c2c(N3CCN(CC[C@@H]4CCCN4S(=O)(=O)c4cncc5ccccc45)CC3)cccc2o1

7
1340
1
75
32
12
672

The following compounds each have a reported value; give each one's Ki.
1. O=S(=O)(c1cccc2cnccc12)N1CCC[C@H]1CCN1CCN(c2cccc3sccc23)CC1
2. O=S(=O)(c1cncc2ccccc12)N1CC[C@@H]1CCN1CCN(c2cccc3sccc23)CC1
3. O=S(=O)(c1cccc2ncccc12)N1CCCCC[C@H]1CCN1CCN(c2cccc3sccc23)CC1
4. O=S(=O)(c1cccc2ncccc12)N1CCC[C@H]1CCN1CCN(c2cccc3[nH]ccc23)CC1
5. O=S(=O)(c1cccc2cnccc12)N1CCC[C@@H]1CCN1CCN(c2cccc3sccc23)CC1

1. 23
2. 31
3. 19
4. 165
5. 3

Each compound below has a reported value. Please supply its Ki.
1. O=S(=O)(c1cccc2ncccc12)N1CCC[C@H]1CCN1CC=C(c2c[nH]c3ccc(Cl)cc23)CC1
2. O=S(=O)(c1cncc2ccccc12)N1CCC[C@@H]1CCN1CCN(c2cccc3[nH]ccc23)CC1
3. O=S(=O)(c1cccc2cnccc12)N1CCC[C@H]1CCN1CCN(c2noc3ccccc23)CC1
4. O=S(=O)(c1cccc2ncccc12)N1CCC[C@H]1CCN1CCN(c2cccc3c2OCCO3)CC1
5. O=S(=O)(c1cccc2ncccc12)N1CC[C@@H]1CCN1CCN(c2cccc3sccc23)CC1
6. O=S(=O)(c1cccc2ncccc12)N1CCC[C@@H]1CCN1CCN(c2cccc3c2OCCO3)CC1

[65, 4, 10, 349, 45, 66]
